- assayed target: Recombinant human Bcl-2 protein (Homo sapiens (Human))
- Sequence (P10415 whole entry): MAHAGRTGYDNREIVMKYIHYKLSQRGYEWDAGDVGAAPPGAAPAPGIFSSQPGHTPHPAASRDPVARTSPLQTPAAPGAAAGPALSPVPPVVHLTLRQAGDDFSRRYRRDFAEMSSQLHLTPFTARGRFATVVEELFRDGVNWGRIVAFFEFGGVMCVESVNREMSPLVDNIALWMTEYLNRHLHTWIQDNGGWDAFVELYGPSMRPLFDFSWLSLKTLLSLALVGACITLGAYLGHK
- test description: Bcl-2 TR-FRET Assay
- Type: binding
- condition context: wild type Bcl-2; unit inferred; read-out: Bcl-2 WT
- Experimental: Biological Example: Bcl-2 TR-FRET Assay Compounds disclosed herein were tested for blocking of Bcl-2 protein with its ligand in an assay based on Time-Resolved Fluorescence Resonance Energy Transfer (TR-FRET) methodology. […] The TR-FRET signals (337 nm-520 nm-490 nm) were read on BMG PHERAstar FSX instrument. The inhibition percentage of Bcl-2 interaction with its ligand in presence of increasing concentrations of compounds was calculated based on the TR-FRET signals. […]
observation type: log10(IC50) (log10 of the value in nM)
// stored as log10 of IC50 expressed in nM

Lookup: log10(IC50) / Recombinant human Bcl-2 protein (Homo sapiens (Human)) / CC(C)c1ccccc1C1CN(C(C)C)CCN1C1CC2(CCN(c3ccc(C(=O)NS(=O)(=O)c4ccc(NC[C@H]5CC[C@](C)(O)CC5)c([N+](=O)[O-])c4)c(Oc4cnc5[nH]ccc5c4)c3)CC2)C1 (stereo partly drawn) [Example 3]
-1.72

Lookup: log10(IC50) / Recombinant human Bcl-2 protein (Homo sapiens (Human)) / COc1ccc(CN2CCN(C3CC4(C3)CN(c3ccc(C(=O)NS(=O)(=O)c5ccc(NC[C@H]6CC[C@](C)(O)CC6)c([N+](=O)[O-])c5)c(Oc5cnc6[nH]cc(Cl)c6c5)c3)C4)[C@H](c3ccccc3C(C)C)C2)cc1 [Example 207]
-0.70

Lookup: log10(IC50) / Recombinant human Bcl-2 protein (Homo sapiens (Human)) / COc1cc(CN2CCN(C3CC4(C3)CN(c3ccc(C(=O)NS(=O)(=O)c5ccc(NC[C@H]6CC[C@](C)(O)CC6)c([N+](=O)[O-])c5)c(Oc5cnc6[nH]cc(F)c6c5)c3)C4)[C@H](c3ccccc3C(C)C)C2)ccc1F [Example 184]
-0.72

Lookup: log10(IC50) / Recombinant human Bcl-2 protein (Homo sapiens (Human)) / CC(C)c1ccccc1C1CN(Cc2ccc(S(C)(=O)=O)cc2)CCN1C1CC2(CCN(c3ccc(C(=O)NS(=O)(=O)c4ccc(NC[C@H]5CC[C@](C)(O)CC5)c([N+](=O)[O-])c4)c(Oc4cnc5[nH]ccc5c4)c3)CC2)C1 (stereo partly drawn) [Example 82]
-1.51

Lookup: log10(IC50) / Recombinant human Bcl-2 protein (Homo sapiens (Human)) / CC(C)c1ccccc1C1CN(Cc2ccc(F)cc2F)CCN1C1CC2(CCN(c3ccc(C(=O)NS(=O)(=O)c4ccc(NC[C@H]5CC[C@](C)(O)CC5)c([N+](=O)[O-])c4)c(Oc4cnc5[nH]ccc5c4)c3)CC2)C1 (stereo partly drawn) [Example 50]
-0.74

Lookup: log10(IC50) / Recombinant human Bcl-2 protein (Homo sapiens (Human)) / COc1ccc(CN2CCN(C3CC4(CCN(c5ccc(C(=O)NS(=O)(=O)c6ccc(NC[C@H]7CC[C@](C)(O)CC7)c([N+](=O)[O-])c6)c(Oc6cnc7[nH]ccc7c6)c5)CC4)C3)C(c3ccccc3C(C)C)C2)c(OC)c1 (stereo partly drawn) [Example 48]
-1.14

Lookup: log10(IC50) / Recombinant human Bcl-2 protein (Homo sapiens (Human)) / CC(C)c1ccccc1C1CN(CC2CCCCC2)CCN1C1CC2(CCN(c3ccc(C(=O)NS(=O)(=O)c4ccc(NC[C@H]5CC[C@](C)(O)CC5)c([N+](=O)[O-])c4)c(Oc4cnc5[nH]ccc5c4)c3)CC2)C1 (stereo partly drawn) [Example 16]
-0.59

Lookup: log10(IC50) / Recombinant human Bcl-2 protein (Homo sapiens (Human)) / COc1cc(CN2CCN(C3CC4(CCN(c5ccc(C(=O)NS(=O)(=O)c6ccc(NC[C@H]7CC[C@](C)(O)CC7)c([N+](=O)[O-])c6)c(Oc6cnc7[nH]cc(F)c7c6)c5)CC4)C3)[C@H](c3ccccc3C(C)C)C2)cc2ccoc12 [Example 281]
-0.37

Lookup: log10(IC50) / Recombinant human Bcl-2 protein (Homo sapiens (Human)) / COc1ccc(CN2CCN(C3CC4(CCN(c5ccc(C(=O)NS(=O)(=O)c6ccc(NC[C@H]7CC[C@](C)(O)CC7)c([N+](=O)[O-])c6)c(Oc6cnc7[nH]ccc7c6)c5)CC4)C3)C(c3ccccc3C(C)C)C2)cc1F (stereo partly drawn) [Example 134]
-0.46

All figures here come from patent US20240376097A1.
